src = patent US10206908B2

Below, each entry is listed alongside its reported EC50.
Test system: Wnt activity (Sp5-Luc reporter, SW480 colon carcinoma cells)
Assay: Screening assay for Wnt activity: Sp5-Luc reporter gene assay in SW480 colon carcinoma cells
Type: cell-based
Conditions: Homo sapiens; Sp5-Luc reporter, SW480 cells, overnight incubation

{"molecule": "O=C(Nc1cncc(-c2cc3c(-c4cc5c(-c6cccc(F)c6)nccc5[nH]4)n[nH]c3cn2)c1)C1CCCCC1", "tested-target": "Wnt activity (Sp5-Luc reporter, SW480 colon carcinoma cells)", "EC50": "1230 nM"}
{"molecule": "Oc1cncc(-c2cc3c(-c4cc5c(-c6cccs6)nccc5[nH]4)n[nH]c3cn2)c1", "tested-target": "Wnt activity (Sp5-Luc reporter, SW480 colon carcinoma cells)", "EC50": "1010 nM"}
{"molecule": "CCCCC(=O)Nc1cncc(-c2cc3c(-c4cc5c(-c6cccc(F)c6)nccc5[nH]4)n[nH]c3cn2)c1", "tested-target": "Wnt activity (Sp5-Luc reporter, SW480 colon carcinoma cells)", "EC50": "1140 nM"}
{"molecule": "O=C(Nc1cncc(-c2cc3c(-c4cc5c(-c6ccc(F)cc6)nccc5[nH]4)n[nH]c3cn2)c1)C1CC1", "tested-target": "Wnt activity (Sp5-Luc reporter, SW480 colon carcinoma cells)", "EC50": "844 nM"}
{"molecule": "O=C(Nc1cncc(-c2cc3c(-c4cc5c(-c6ccccc6F)nccc5[nH]4)n[nH]c3cn2)c1)C1CCC1", "tested-target": "Wnt activity (Sp5-Luc reporter, SW480 colon carcinoma cells)", "EC50": "1250 nM"}

*Q* What does the data say about its EC50? Entry: `c1cncc(-c2cc3c(-c4cc5c(-c6ccoc6)nccc5[nH]4)n[nH]c3cn2)c1`
*A* 1030 nM

*Q* Recorded EC50 of `CCCCC(=O)Nc1cncc(-c2cc3c(-c4cc5c(-c6cc(F)cc(CNS(C)(=O)=O)c6)nccc5[nH]4)n[nH]c3cn2)c1` , please.
*A* > 10000 nM
